Documented apparent KD of K4 kissing-loop reporter across a set of sequences
Tested on: K4 kissing-loop RNA reporter;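 further: bound reporter read as fluorescence of individual clusters on recovered sequencing chips by microscopy, with normalized cluster intensities fitted with a binding model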
Assay: apparent KD of K4 kissing-loop reporter; higher = weaker reporter binding
Conditions: Eterna round: R107; input ligand: none
Number only, in nM; omit the unit.

Below, 5 sequences whose answers are already recorded.
# residue-codes, outcome-measure, data-value
data = [
    ("AGCCGAAAGGCGAGUGCUGUCACUCCGGAAGGAGCGGCGAAAACGCCAGGUAGGUCGCCGGAGUGAUGUUCCGGUGCAGCACUCA [Omei KL Arginine A Exc B v2]", "apparent KD of K4 kissing-loop reporter", 932),
    ("UACGCCACAGACGUGGAGUACCUUGGGUCGAAGGAUAUCAGCAUUGUGAGAAGGUCGCCGAUUCUAAGUGAUGUUUAGAUCAGGG [theeternabot_sameState_KL_FMN_A_2]", "apparent KD of K4 kissing-loop reporter", 446),
    ("UUUUUGGAGAAUUAUAGUGAUGUUAUGAAGGAGGAUAUCUGGAGAUGGAGAAGGCCUAGUGGCUCAGCCCUCGCGGGUGGGUGGG [ExFMNA.aD]", "apparent KD of K4 kissing-loop reporter", 456),
    ("CCGUGGAGUGAUGUUCCACGUUCUACGGAUACCAGCCACGCCAGCGGCCCUUGGCAGCCGCACCUUGCAGUGAUGUUGUGAGGCU [Same State Theophylline A GF 5]", "apparent KD of K4 kissing-loop reporter", 349),
    ("AGCAAUAUCACGGCCGCCACUGAAUAUUGUUUUUAUAUUUAUAAAUCUUGCCAGUGAUGUUGGUUCAGGACCGGGUGAGUUAAUA [JR_SSTryptoB_Sub004]", "apparent KD of K4 kissing-loop reporter", 783),
]

According to the records, this sequence UUUCCAGAUAAGUGGGAACACUCCAUAACAGAGGAUAUCAGAGCGCUGAGAAGGCUGUUUAUCAGUGAUGUUGAUAGUGUGGAGU [FMN A SS t2a] displays apparent KD of K4 kissing-loop reporter of 671

According to the records, this sequence CCAAUCUGUUACGAUACCAGUCAAAGAUAUUUUAUCAAUGCCCUCACCGAGUGAUGUUCGGACCCUUGGCAGCGUCUGGGAUAGG [ddfcmullin] displays apparent KD of K4 kissing-loop reporter of 186

Hello, the source for this data is the supplement of paper PMC9170038, in case you need it.
